Measured values drawn from patent US9200046B2 for this set.

- study_target: Nrf2-Keap1 complex (Homo sapiens, UniProt Q14145)
- Sequence (Q14145 whole entry, one chain of several): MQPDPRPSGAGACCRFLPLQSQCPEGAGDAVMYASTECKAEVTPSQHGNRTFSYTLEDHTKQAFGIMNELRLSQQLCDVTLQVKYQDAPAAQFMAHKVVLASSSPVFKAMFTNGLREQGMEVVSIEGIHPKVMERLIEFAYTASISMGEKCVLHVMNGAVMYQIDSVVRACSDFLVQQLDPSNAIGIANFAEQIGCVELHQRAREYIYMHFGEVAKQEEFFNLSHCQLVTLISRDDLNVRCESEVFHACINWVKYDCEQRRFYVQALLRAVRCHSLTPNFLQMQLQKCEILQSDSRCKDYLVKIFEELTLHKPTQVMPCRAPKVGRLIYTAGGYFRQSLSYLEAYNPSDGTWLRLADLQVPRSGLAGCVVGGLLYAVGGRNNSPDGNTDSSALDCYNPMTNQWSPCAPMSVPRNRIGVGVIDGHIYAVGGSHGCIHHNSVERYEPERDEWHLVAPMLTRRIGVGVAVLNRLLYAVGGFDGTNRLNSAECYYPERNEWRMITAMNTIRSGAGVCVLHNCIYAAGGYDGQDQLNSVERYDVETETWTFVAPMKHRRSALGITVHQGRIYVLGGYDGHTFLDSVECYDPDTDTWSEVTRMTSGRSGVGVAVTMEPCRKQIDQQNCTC
- assay_explanation: cell-based
- Assay type: cell-based
- measurement_conditions: Table 2; 100 nL compound; screen run at 16 and 32 μM, 3 hr
Below, each entry is listed alongside its reported 100 nL (luminescence).
Reply with the value as a number alone.

• CC1(C)C(=O)C=C[C@]2(C)[C@H]3CC[C@@]4(C)[C@H](c5ccoc5)OC(=O)[C@H]5O[C@]54[C@]3(C)C=C[C@@H]12 [7-DESACETOXY-6,7-DEHYDROGEDUNIN] = 1660

Q: Fill in 100 nL (luminescence) for COc1cc(O)c(C(=O)/C=C/c2ccccc2)c(OC)c1 [FLAVOKAWAINB] tested with Nrf2-Keap1 complex (Homo sapiens, UniProt Q14145).
A: 2564

Q: Recall the reported 100 nL (luminescence) of COc1cc(O)c(C(=O)c2ccccc2)cc1O [CEAROIN] when tested on Nrf2-Keap1 complex (Homo sapiens, UniProt Q14145).
A: 1076

Q: Quote Nrf2-Keap1 complex (Homo sapiens, UniProt Q14145) 100 nL (luminescence) for entry CC(=O)O[C@@H]1C[C@H]2C(C)(C)C(=O)C=C[C@]2(C)[C@H]2CC[C@@]3(C)[C@H](c4ccoc4)OC(=O)[C@H]4O[C@]43[C@@]21C [GEDUNIN] .
A: 4812
